Value source: patent US20260217717A1

biological target: CDK2/Cyclin E (Homo sapiens); construct: purchased Eurofins 14-475; experiment: CDK2/Cyclin E enzymatic phosphorylation assay (Caliper mobility shift); assay type: biochemical; details: read-out: Enzyme CDK2/cyclin E IC50; also: 1.0 mM ATP or ATP Km
Under this convention, yes (1) denotes IC50 strictly below 3 nM and no (0) denotes IC50 at or above 3 nM.

Here's what some known entries look like.
Does this compound meet the criterion IC50 < 3 nM? C[C@@H](c1cccnc1)n1ncc2ncc(Nc3cc(C(F)F)[nH]n3)nc21 [Example 2]
no (0)

Does this compound meet the criterion IC50 < 3 nM? C[C@@H](C1CCOCC1)n1ncc2ncc(Nc3cc(C4COC4)[nH]n3)nc21 [Example 41]
yes (1)

Does this compound meet the criterion IC50 < 3 nM? Cc1nn(CC2CCOCC2)c2nc(Nc3cc(C(C)C)[nH]n3)cnc12 [Example 6]
no (0)

Others:
Does this compound meet the criterion IC50 < 3 nM? Fc1ncccc1Cn1ncc2ncc(Nc3cc(C4COC4)[nH]n3)nc21 [Example 49]
yes (1)

Does this compound meet the criterion IC50 < 3 nM? c1ccc(Cn2ncc3ncc(Nc4cc(C5COC5)[nH]n4)nc32)cc1 [Example 44]
no (0)

Does this compound meet the criterion IC50 < 3 nM? C[C@@H](c1cccc(F)c1)n1ncc2ncc(Nc3cc(C4COC4)[nH]n3)nc21 [Example 51]
yes (1)

Does this compound meet the criterion IC50 < 3 nM? CCc1cc(Nc2cnc3cnn([C@@H](C)c4cccnc4)c3n2)n[nH]1 [Example 32]
yes (1)

Does this compound meet the criterion IC50 < 3 nM? CC(C)c1cc(Nc2cnc3cnn([C@H]4CC[C@H](O)CC4)c3n2)n[nH]1 [Example 57]
yes (1)

Does this compound meet the criterion IC50 < 3 nM? CC(=O)N1CCC(n2ncc3ncc(Nc4cc(C(C)C)[nH]n4)nc32)CC1 [Example 58]
no (0)
